Attribute: inhibition
targetDesc: Replicase polyprotein 1ab (Severe acute respiratory syndrome-related coronavirus)
statedConditions: dose 5.0 µM, time 30.0 min
Return type: number; implicit unit %.

Some molecules with known inhibition results, for comparison:
Cc1cc(S(=O)(=O)NC[C@H]2O[C@@H](n3cnc4c(=O)[nH]cnc43)[C@H](O)[C@@H]2O)ccc1Cl    71.8
COc1ccc(S(=O)(=O)N(C)C[C@H]2O[C@@H](n3cc(C#Cc4ccccc4)c4c(N)ncnc43)[C@H](O)[C@@H]2O)cc1[N+](=O)[O-]    0.5
CCN(C[C@H]1O[C@@H](n2cnc3c(=O)[nH]cnc32)[C@H](O)[C@@H]1O)S(=O)(=O)c1ccc(Cl)c(C)c1    91

The molecule CN(C[C@H]1O[C@@H](n2cc(C#Cc3cnc4ccccc4c3)c3c(N)ncnc32)[C@H](O)[C@@H]1O)S(=O)(=O)c1ccc(Br)c([N+](=O)[O-])c1 showed inhibition equal to 5.5

The molecule CNc1ncnc2c1ncn2[C@@H]1O[C@H](CNS(=O)(=O)c2ccc(C)c([N+](=O)[O-])c2)[C@@H](O)[C@H]1O showed inhibition equal to 66.4

The molecule CNc1ncnc2c1ncn2[C@@H]1O[C@H](CNS(=O)(=O)c2ccc(OC)c(C#N)c2)[C@@H](O)[C@H]1O showed inhibition equal to 45.1

The molecule COc1ccc(S(=O)(=O)N(C)C[C@H]2O[C@@H](n3cc(C#Cc4ccccc4)c4c(N)ncnc43)[C@H](O)[C@@H]2O)cc1C#N showed inhibition equal to 1

The molecule CNc1ncnc2c1ncn2[C@@H]1O[C@H](CNS(=O)(=O)c2ccc(Br)c([N+](=O)[O-])c2)[C@@H](O)[C@H]1O showed inhibition equal to 54

The molecule COc1ccc(S(=O)(=O)NC[C@H]2O[C@@H](n3cnc4c(=O)[nH]cnc43)[C@H](O)[C@@H]2O)cc1C#N showed inhibition equal to 98.4

====

Attribute: inhibition
targetDesc: Replicase polyprotein 1ab (Severe acute respiratory syndrome-related coronavirus)
statedConditions: dose 5.0 µM, time 30.0 min
Return type: number; implicit unit %.

Some compounds with known inhibition results, for comparison:
CNc1ncnc2c1ncn2[C@@H]1O[C@H](CNS(=O)(=O)c2ccc(C)c(Cl)c2)[C@@H](O)[C@H]1O    53.5
CCN(C[C@H]1O[C@@H](n2cnc3c(NC)ncnc32)[C@H](O)[C@@H]1O)S(=O)(=O)c1ccc(C)c(Cl)c1    10.9
COc1ccc(S(=O)(=O)NC[C@H]2O[C@@H](n3cnc4c(=O)[nH]cnc43)[C@H](O)[C@@H]2O)cc1[N+](=O)[O-]    91.7

Here's the next entry for you.
The compound CNc1ncnc2c1ncn2[C@@H]1O[C@H](CNS(=O)(=O)c2ccc(OC)c([N+](=O)[O-])c2)[C@@H](O)[C@H]1O showed inhibition equal to 41.9
